- measured_on: TESK1 (human) (UniProt Q15569)
- Sequence (Q15569 whole entry, looked up): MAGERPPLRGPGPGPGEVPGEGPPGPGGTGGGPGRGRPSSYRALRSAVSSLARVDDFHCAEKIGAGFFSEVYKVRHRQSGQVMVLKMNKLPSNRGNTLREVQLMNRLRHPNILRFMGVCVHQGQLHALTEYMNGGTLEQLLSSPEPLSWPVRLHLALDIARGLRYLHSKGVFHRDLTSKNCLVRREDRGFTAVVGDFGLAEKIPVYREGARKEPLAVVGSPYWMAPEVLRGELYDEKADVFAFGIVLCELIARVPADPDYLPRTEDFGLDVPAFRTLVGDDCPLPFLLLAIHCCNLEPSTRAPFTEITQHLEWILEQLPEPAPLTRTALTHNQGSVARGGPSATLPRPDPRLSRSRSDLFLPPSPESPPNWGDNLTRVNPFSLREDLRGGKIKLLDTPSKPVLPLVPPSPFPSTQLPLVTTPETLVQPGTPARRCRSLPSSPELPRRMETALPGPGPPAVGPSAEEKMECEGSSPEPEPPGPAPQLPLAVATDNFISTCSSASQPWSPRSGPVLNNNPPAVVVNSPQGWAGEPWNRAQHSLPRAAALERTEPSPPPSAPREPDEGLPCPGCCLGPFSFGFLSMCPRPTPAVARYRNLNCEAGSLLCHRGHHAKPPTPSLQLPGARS
- test_name: KINOMEscan competition binding
- applied_conditions: compound 10.0 µM
property_label: kinase still bound, per cent of control (%)
Value expressed in %; do not type the unit.

1) CN(C)C/C=C/C(=O)Nc1cccc(Nc2ncc3c(n2)N(C)c2ccccc2C(=O)N3C)c1
100
2) CCN1CCN(Cc2ccc(Nc3ncc4c(n3)N(C)c3ccccc3C(=O)N4C)cc2C(F)(F)F)CC1
73
3) O=C(O)c1ccc(Nc2ncc3c(n2)-c2ccc(Cl)cc2C(c2c(F)cccc2F)=NC3)cc1
100
4) COc1cc(C(=O)NC2CCN(C)CC2)ccc1Nc1ncc2c(n1)N(C1CCCC1)C(C)CC(=O)N2C (centres undefined)
100
5) O=C1Nc2ccc(I)cc2/C1=C/c1cc(Br)c(O)c(Br)c1
100

Input line: Form field - read-out: kinase still bound, per cent of control; system: TESK1 (human) (UniProt Q15569); submitted item: C[C@@H](Oc1cc(-n2cnc3ccc(CN4CCN(C)CC4)cc32)sc1C(N)=O)c1ccccc1C(F)(F)F
Output line: 100

Input line: Quick one: Cc1ccc(NC(=O)c2cccc(C(C)(C)C#N)c2)cc1Nc1ccc2ncn(C)c(=O)c2c1
Output line: 100

Input line: Quick one: CCOc1cc2ncc(C#N)c(Nc3ccc(OCc4ccccn4)c(Cl)c3)c2cc1NC(=O)/C=C/CN(C)C
Output line: 100

Input line: Quick one: CCC(=O)N1CCN(c2ccc(-n3c(=O)ccc4cnc5ccc(-c6cnc7ccccc7c6)cc5c43)cc2C(F)(F)F)CC1
Output line: 58

====

- measured_on: UniProtKB P19525
- Sequence (P19525 whole entry, looked up): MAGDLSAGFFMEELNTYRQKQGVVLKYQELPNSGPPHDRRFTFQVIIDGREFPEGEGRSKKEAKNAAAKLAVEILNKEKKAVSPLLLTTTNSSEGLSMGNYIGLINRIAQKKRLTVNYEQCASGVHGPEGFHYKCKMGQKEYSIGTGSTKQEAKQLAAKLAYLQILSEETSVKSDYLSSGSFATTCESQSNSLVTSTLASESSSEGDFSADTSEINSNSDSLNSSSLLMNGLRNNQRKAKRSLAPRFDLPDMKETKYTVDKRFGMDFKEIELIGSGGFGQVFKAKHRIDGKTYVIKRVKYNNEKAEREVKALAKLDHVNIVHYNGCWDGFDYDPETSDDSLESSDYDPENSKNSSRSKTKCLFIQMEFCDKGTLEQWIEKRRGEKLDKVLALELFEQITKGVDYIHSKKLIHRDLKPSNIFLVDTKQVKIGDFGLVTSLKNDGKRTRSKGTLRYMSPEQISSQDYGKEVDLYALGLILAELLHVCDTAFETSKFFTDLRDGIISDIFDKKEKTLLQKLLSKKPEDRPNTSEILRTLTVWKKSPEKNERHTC
- test_name: KINOMEscan competition binding
- applied_conditions: compound 10.0 µM
property_label: kinase still bound, per cent of control (%)
Value expressed in %; do not type the unit.

1. CN(C)C/C=C/C(=O)Nc1cccc(Nc2ncc3c(n2)N(C)c2ccccc2C(=O)N3C)c1
75
2. COc1cc(C(=O)NC2CCN(C)CC2)ccc1Nc1ncc2c(n1)N(C1CCCC1)C(C)CC(=O)N2C (configuration not stated)
100
3. C=CC(=O)Nc1cccc(Nc2nc(N[C@H]3CC[C@H](N(C)C)CC3)nc3c2ncn3C(C)C)c1
78
4. OCCCNc1cc(-c2ccnc(Nc3cccc(Cl)c3)n2)ccn1
100
5. O=C(NC1CC1)c1cccc(-c2ccc3c(NC(=O)C4CC4)n[nH]c3c2)c1
85

Input line: Item C[C@@H](Oc1cc(-n2cnc3ccc(CN4CCN(C)CC4)cc32)sc1C(N)=O)c1ccccc1C(F)(F)F has what recorded kinase still bound, per cent of control?
Output line: 76

Input line: Quick one: CC[C@@H]1C(=O)N(C)c2cnc(Nc3ccc(C(=O)NC4CCN(C)CC4)cc3OC)nc2N1C1CCCC1
Output line: 100

====

- measured_on: AURKC (human) (UniProt Q9UQB9)
- Sequence (Q9UQB9 whole entry, looked up): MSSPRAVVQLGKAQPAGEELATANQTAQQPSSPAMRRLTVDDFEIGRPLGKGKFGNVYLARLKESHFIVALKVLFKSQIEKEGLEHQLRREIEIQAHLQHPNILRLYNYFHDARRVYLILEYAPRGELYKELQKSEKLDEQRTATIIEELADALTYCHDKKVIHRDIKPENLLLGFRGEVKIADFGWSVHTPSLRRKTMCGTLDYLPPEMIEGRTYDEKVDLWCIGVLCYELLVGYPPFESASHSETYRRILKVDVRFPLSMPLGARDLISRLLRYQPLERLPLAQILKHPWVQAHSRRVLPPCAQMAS
- test_name: KINOMEscan competition binding
- applied_conditions: compound 10.0 µM
Here the recorded kinase still bound, per cent of control is given for each entry.
Value expressed in %; do not type the unit.

Guide cases for kinase still bound, per cent of control, answers given:
1. OCCCNc1cc(-c2ccnc(Nc3cccc(Cl)c3)n2)ccn1
100
2. Nc1ccc(-c2ccc3ncc4ccc(=O)n(-c5cccc(C(F)(F)F)c5)c4c3c2)cn1
100
3. Cc1ccc(C(=O)Nc2cccc(C(F)(F)F)c2)cc1Nc1cncc(C(N)=O)c1
100
4. O=C(O)c1ccc(Nc2ncc3c(n2)-c2ccc(Cl)cc2C(c2c(F)cccc2F)=NC3)cc1
20

Input line: Form field - read-out: kinase still bound, per cent of control; system: AURKC (human) (UniProt Q9UQB9); submitted item: CN(C)C/C=C/C(=O)Nc1cccc(Nc2ncc3c(n2)N(C)c2ccccc2C(=O)N3C)c1
Output line: 9.2

Input line: Quick one: COc1cc(C(=O)NC2CCN(C)CC2)ccc1Nc1ncc2c(n1)N(C1CCCC1)CCC(=O)N2C(C)C
Output line: 100

Input line: Quick one: Cc1cc([C@@H](C)Nc2ccccc2C(=O)O)c2nc(N3CCOCC3)cc(=O)n2c1
Output line: 93

Input line: Quick one: CC[C@@H]1C(=O)N(C)c2cnc(Nc3ccc(C(=O)NC4CCN(C)CC4)cc3OC)nc2N1C1CCCC1
Output line: 100

Input line: Quick one: Cc1ccc2nc(NCCN)c3ncc(C)n3c2c1
Output line: 100
